# System: A549
# measurement.protocol: Cytotoxicity against human A549 cells after 48 hrs by SRB assay
# Format: functional, cell-based
# condition.details: Homo sapiens, A549, 48 h
Please note: LC50 exactly at 1000 nM is -1. Only values below 1000 nM get 1.

- molecule: "C/C=C1\\NC(=O)[C@H](Cc2ccccc2)NC(=O)[C@@H](C(C)C)NC(=O)[C@@H]([C@H](C)CC)NC(=O)[C@H](NC(=O)[C@H](NC(=O)[C@H](CCCN)NC(=O)[C@H]2CCCN2C(=O)[C@H](NC(=O)CCCC(C)C)C(C)C)[C@H](C)CC)[C@H](C)OC(=O)[C@H](C(C)C)NC1=O"
  group: -1
- molecule: "CC[C@@H]1NC(=O)[C@H](Cc2ccccc2)NC(=O)[C@@H](C(C)C)NC(=O)[C@@H]([C@H](C)CC)NC(=O)[C@H](NC(=O)[C@H](NC(=O)[C@H](CCCN)NC(=O)[C@H]2CCCN2C(=O)[C@H](NC(=O)[C@@H](NC(=O)[C@@H](NC(=O)[C@H](NC(=O)CCCC(C)C)C(C)C)[C@@H](C)O)C(C)C)C(C)C)[C@H](C)CC)[C@H](C)OC(=O)[C@H](C(C)C)NC1=O"
  group: -1
- molecule: "C/C=C1\\NC(=O)[C@H](Cc2ccccc2)NC(=O)[C@@H](C(C)C)NC(=O)[C@@H]([C@H](C)CC)NC(=O)[C@H](NC(=O)[C@H](NC(=O)[C@H](CCCN)NC(=O)[C@H]2CCCN2C(=O)[C@H](NC(=O)[C@@H](NC(=O)[C@@H](NC(=O)[C@H](NC(=O)CCCCC(C)(F)F)C(C)C)[C@@H](C)O)C(C)C)C(C)C)[C@H](C)CC)[C@H](C)OC(=O)[C@H](C(C)C)NC1=O"
  group: -1
- molecule: "C/C=C1\\NC(=O)[C@H](Cc2ccccc2)NC(=O)[C@@H](C(C)C)NC(=O)[C@@H]([C@H](C)CC)NC(=O)[C@H](NC(=O)[C@H](NC(=O)[C@H](CCCN)NC(=O)[C@H]2CCCN2C(=O)[C@H](NC(=O)[C@@H](NC(=O)[C@@H](NC(=O)[C@H](NC(=O)C2CCC(C)CC2)C(C)C)[C@@H](C)O)C(C)C)C(C)C)[C@H](C)CC)[C@H](C)OC(=O)[C@H](C(C)C)NC1=O (stereo not given in full)"
  group: -1
- molecule: "C/C=C1\\NC(=O)[C@H](Cc2ccccc2)NC(=O)[C@@H](C(C)C)NC(=O)[C@@H]([C@H](C)CC)NC(=O)[C@H](NC(=O)[C@H](NC(=O)[C@H](CCCN)NC(=O)[C@H]2CCCN2C(=O)[C@H](NC(=O)[C@@H](NC(=O)[C@@H](NC(=O)[C@H]2CCCN2C(=O)CCCC(C)C)[C@@H](C)O)C(C)C)C(C)C)[C@H](C)CC)[C@H](C)OC(=O)[C@H](C(C)C)NC1=O"
  group: -1
- molecule: "C/C=C1\\NC(=O)[C@H](Cc2ccccc2)NC(=O)[C@@H](C(C)C)NC(=O)[C@@H]([C@H](C)CC)NC(=O)[C@H](NC(=O)[C@H](NC(=O)[C@H](CCCN)NC(=O)[C@H]2CCCCN2C(=O)[C@H](NC(=O)[C@@H](NC(=O)[C@@H](NC(=O)[C@H](NC(=O)CC[C@@H](C)CC)C(C)C)[C@@H](C)O)C(C)C)C(C)C)[C@H](C)CC)[C@H](C)OC(=O)[C@H](C(C)C)NC1=O"
  group: -1
- molecule: "C/C=C1\\NC(=O)[C@H](Cc2ccc([N+](=O)[O-])cc2)NC(=O)[C@@H](C(C)C)NC(=O)[C@@H]([C@H](C)CC)NC(=O)[C@H](NC(=O)[C@H](NC(=O)[C@H](CCCN)NC(=O)[C@H]2CCCN2C(=O)[C@H](NC(=O)[C@@H](NC(=O)[C@@H](NC(=O)[C@H](NC(=O)CC[C@@H](C)CC)C(C)C)[C@@H](C)O)C(C)C)C(C)C)[C@H](C)CC)[C@H](C)OC(=O)[C@H](C(C)C)NC1=O"
  group: 1
- molecule: "C/C=C1\\NC(=O)[C@H](Cc2ccccc2)NC(=O)[C@@H](C(C)C)NC(=O)[C@@H]([C@H](C)CC)NC(=O)[C@H](NC(=O)[C@H](NC(=O)[C@H](CCCC[N+](C)(C)C)NC(=O)[C@H]2CCCN2C(=O)[C@H](NC(=O)[C@@H](NC(=O)[C@@H](NC(=O)[C@H](NC(=O)CC[C@@H](C)CC)C(C)C)[C@@H](C)O)C(C)C)C(C)C)[C@H](C)CC)[C@H](C)OC(=O)[C@H](C(C)C)NC1=O"
  group: -1
- molecule: "C/C=C1\\NC(=O)[C@H](Cc2ccc(Cl)cc2)NC(=O)[C@@H](C(C)C)NC(=O)[C@@H]([C@H](C)CC)NC(=O)[C@H](NC(=O)[C@H](NC(=O)[C@H](CCCN)NC(=O)[C@H]2CCCN2C(=O)[C@H](NC(=O)[C@@H](NC(=O)[C@@H](NC(=O)[C@H](NC(=O)CCCC(C)C)C(C)C)[C@@H](C)O)C(C)C)C(C)C)[C@H](C)CC)[C@H](C)OC(=O)[C@H](C(C)C)NC1=O"
  group: 1
- molecule: "C/C=C1\\NC(=O)[C@H](Cc2ccccc2)NC(=O)[C@@H](C(C)C)NC(=O)[C@@H]([C@H](C)CC)NC(=O)[C@H](NC(=O)[C@H](NC(=O)[C@H](CCCN)NC(=O)[C@H]2CCCN2C(=O)[C@H](NC(=O)[C@@H](NC(=O)[C@@H](NC(=O)[C@H](NC(=O)c2ccc3c(c2)OCO3)C(C)C)[C@@H](C)O)C(C)C)C(C)C)[C@H](C)CC)[C@H](C)OC(=O)[C@H](C(C)C)NC1=O"
  group: -1

Hey, just so you know, these numbers are from ChEMBL document CHEMBL1156597.
